Listing: inhibition at 0.1 µM of selected molecules
- target.system: cyclooxygenase-2 (Homo sapiens)
- Construct: human osteosarcoma 143 cells (which specifically express cyclooxygenase-2); endogenous in cells; host or cells: human osteosarcoma 143 cells
- Sequence (P35354 18-604): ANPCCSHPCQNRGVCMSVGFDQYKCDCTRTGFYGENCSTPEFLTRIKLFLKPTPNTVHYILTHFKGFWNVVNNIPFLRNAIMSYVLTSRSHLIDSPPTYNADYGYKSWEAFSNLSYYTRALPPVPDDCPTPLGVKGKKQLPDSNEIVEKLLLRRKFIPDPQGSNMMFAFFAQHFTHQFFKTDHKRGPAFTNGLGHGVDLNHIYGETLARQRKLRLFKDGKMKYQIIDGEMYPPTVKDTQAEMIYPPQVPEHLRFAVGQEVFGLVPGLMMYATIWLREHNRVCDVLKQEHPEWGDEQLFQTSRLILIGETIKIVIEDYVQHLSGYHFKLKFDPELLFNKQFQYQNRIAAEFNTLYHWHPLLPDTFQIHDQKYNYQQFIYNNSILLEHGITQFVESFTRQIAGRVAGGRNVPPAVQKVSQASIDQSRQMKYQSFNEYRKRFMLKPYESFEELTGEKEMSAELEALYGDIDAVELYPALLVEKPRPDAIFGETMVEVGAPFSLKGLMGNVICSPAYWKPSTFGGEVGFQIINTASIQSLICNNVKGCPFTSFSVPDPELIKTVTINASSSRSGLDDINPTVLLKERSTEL
- procedure.details: Inhibition of cyclooxygenase activity: Cox-2 (PGE2 production in response to arachidonic acid, radioimmunoassay; human osteosarcoma 143 cells)
- Assay type: cell-based
- condition.parameters: Conc. 100 nM; read-out: Cox-2% inhib.

# example entries with known answers
CS(=O)(=O)c1ccc(C2=C(c3ccccc3)C(=O)c3ccccc32)cc1 [Example 3] | 80%
NS(=O)(=O)c1ccc(-c2c(-c3ccc(F)cc3)sc3c2COC3=O)cc1 [Example 8] | 42%
NS(=O)(=O)c1ccc(-c2c(-c3ccc(F)c(F)c3)sc3c2COC3=O)cc1 [Example 9] | 98%

Req: // map CS(=O)(=O)c1ccc(-c2c(-c3ccc(F)c(F)c3)sc3c2COC3=O)cc1 [Example 7] to recorded inhibition at 0.1 µM (system: cyclooxygenase-2 (Homo sapiens))
Resp: 64%

Req: Cool, now CS(=O)(=O)c1ccc(-c2c(-c3ccccc3)sc3c2CC(=O)OC3)cc1 [Example 10]
Resp: 65%

Req: Same for CS(=O)(=O)c1ccc(-c2c(-c3ccccc3)oc3ccccc23)cc1 [Example 1]
Resp: 94%

Req: And the next one, CS(=O)(=O)c1ccc(-c2[nH]c3ccccc3c2-c2ccc(F)cc2)cc1 [Example 5] ?
Resp: 86%
